Source of measurements: patent EP0326331B1

Provide the reported mortality at 400 ppm of each item.
Tested on: melon aphids (Aphis gossypii Glover)
Assay: Mite/insect screen, MA
Type: in vivo
Details: Aphis gossypii, percent mortality; SAW, SM & MA RATE 400 PPM; read-out: MA RESULTS %
Method: The compounds of Examples 1-295 were tested for miticidal and insecticidal activity in the following mite/insect screen. Each test compound was formulated by dissolving the compound in acetone/alcohol (50:50) mixture containing 23 g of "TOXIMUL R" (sulfonate/nonionic emulsifier blend) and 13 g of "TOXIMUL S" (sulfonate/nonionic emulsifier blend) per liter. […] After standard exposure periods, percent mortality was evaluated. […]
Answers are plain numbers, in %.

The cases that follow already have their mortality at 400 ppm on record.
Nc1cccc2c(NCCc3ccc(Cl)cc3)ccnc12 | 0
Cc1ccc2nccc(NCCc3ccc(Cl)cc3)c2c1 | 0
COc1ccccc1CCNc1ccnc2cc(Cl)ccc12 | 0
Cc1cccc2c(NCCc3ccc(Cl)cc3)ccnc12 | 0
COc1ccc2nccc(NCCc3ccc(Cl)cc3)c2c1 | 0
FC(F)(F)c1cccc2c(NCCc3ccc(Cl)cc3)ccnc12 | 0
Fc1cccc2c(NCCc3cccc(Oc4ccccc4)c3)ccnc12 | 0
CCN(CCc1ccc(Cl)cc1)c1ccnc2c(F)cccc12 | 50

Consider the following items and state reported mortality at 400 ppm for each.
1. FC(F)(F)c1cccc(CCNc2ccnc3cc(Cl)ccc23)c1
2. Cc1ccc2c(NCCc3ccccc3Oc3ccccc3)ccnc2c1C
3. Clc1ccc(CCNc2ccnc3cc(Cl)ccc23)cc1
4. CC(=O)N(CCc1cccc(C(F)(F)F)c1)c1ccnc2cc(Cl)ccc12

stdout:
0
0
0
0
